Origin of measurements: paper PMC9851200

SH-SY5Y cells: reported DQ Spot for various molecules. Also: reference of the scale not given here.
READOUT NAME: DQ Spot

[[record]]
molecule = "Fc1ccc(-c2ncn(C3CCNCC3)c2-c2ccnc(Oc3ccc(-c4ccccc4)cc3)n2)cc1 [UNC10225377A]"
assay_value = 76.67

[[record]]
molecule = "COc1cccc(C2=C(Nc3cccc(C(=O)O)c3)C(=O)NC2=O)c1 [UNC10225061A]"
assay_value = 110.64

[[record]]
molecule = "O=C(Nc1n[nH]c2nc(-c3cccc(O)c3)ccc12)C1CC1"
assay_value = 112.05

[[record]]
molecule = "O=C(Nc1n[nH]c2cc(-c3ccoc3)ccc12)C1CC1"
assay_value = 113.23

[[record]]
molecule = "O=C(Nc1n[nH]c2nc(-c3ccco3)c(Br)cc12)C1CCN(Cc2ccccc2)C1 (stereo not shown)"
assay_value = 100.36

[[record]]
molecule = "CSc1ccc(NC2=C(c3ccccc3Cl)C(=O)NC2=O)cc1 [UNC10225346A]"
assay_value = 113.39

[[record]]
molecule = "COc1cc2c(Nc3ccc(NC(=O)c4ccccc4)cc3)ncnc2cc1OCCCN1CCOCC1 [UNC10225250A]"
assay_value = 82.98

[[record]]
molecule = "O=C1NC(=O)C(c2ccc(Cl)cc2)=C1Nc1ccc(O)cc1 [UNC10225090A]"
assay_value = 94.51

[[record]]
molecule = "O=C(Nc1n[nH]c2cc(-c3ccsc3)ccc12)C1CC1"
assay_value = 84.83

[[record]]
molecule = "O=C(Nc1n[nH]c2nc(-c3nccs3)c(Br)cc12)C1CC1"
assay_value = 109.81

[[record]]
molecule = "COc1cccc(C2=C(Nc3cccc(O)c3)C(=O)NC2=O)c1 [UNC10225456A]"
assay_value = 105.72

[[record]]
molecule = "O=C(Nc1n[nH]c2nc(-c3cccs3)c(Br)cc12)C1CC1"
assay_value = 106.97

[[record]]
molecule = "COc1ccccc1C1=C(Nc2cccc(O)c2)C(=O)NC1=O [UNC10225043A]"
assay_value = 112.45

[[record]]
molecule = "O=C(Nc1n[nH]c2cc(-c3cccc(F)c3)ccc12)C1CC1"
assay_value = 107.31

[[record]]
molecule = "O=C1NC(=O)C(N2CCc3ccccc32)=C1c1cccc(Cl)c1 [UNC10225137A]"
assay_value = 107.27

[[record]]
molecule = "COc1cccc(C2=C(Nc3cccc(Cl)c3)C(=O)NC2=O)c1 [UNC10225288A]"
assay_value = 108.64

[[record]]
molecule = "Cn1cnc2c(N)ncnc21 [UNC10225123A]"
assay_value = 110.82

[[record]]
molecule = "O=C(Nc1n[nH]c2nc(-c3nccs3)c(Br)cc12)C1CCCC1"
assay_value = 108.28

[[record]]
molecule = "O=C(Nc1n[nH]c2nc(-c3ccccc3)c(Br)cc12)C1CC1"
assay_value = 102.39


----------
# Tested on: endogenous TFE3
# PROTOCOL DETAILS: TFE3 nuclear translocation, immunocytochemistry high-content imaging
# Format: cell-based
# TEST SETTINGS: TFE3 assay, 24 h, SH-SY5Y; µM; read-out: Best-Fit Values EC50 (converted)
Recorded EC50 for the following molecules
READOUT NAME: EC50 (µM)

[[record]]
molecule = "Cc1cccc(-c2nc(Nc3ccc4nn(C)cc4c3)c3ccccc3n2)n1 [NK167]"
assay_value = 1.04

[[record]]
molecule = "Cc1cccc(-c2nc(Nc3ccc4[nH]ccc4c3)c3ccccc3n2)n1 [NK218]"
assay_value = 0.42

[[record]]
molecule = "Cc1cccc(-c2nc(Nc3ccc4nnn(C)c4c3)c3ccccc3n2)n1 [NK222]"
assay_value = 0.22

[[record]]
molecule = "Cc1cccc(-c2nc(Nc3ccc4nc(C)sc4c3)c3ccccc3n2)n1 [NK165]"
assay_value = 0.58

